Data credit: patent US20260347372A1

Target: KRAS WT (Homo sapiens)
Sequence (P01116 with tags, fused parts or gaps isoform P01116-2): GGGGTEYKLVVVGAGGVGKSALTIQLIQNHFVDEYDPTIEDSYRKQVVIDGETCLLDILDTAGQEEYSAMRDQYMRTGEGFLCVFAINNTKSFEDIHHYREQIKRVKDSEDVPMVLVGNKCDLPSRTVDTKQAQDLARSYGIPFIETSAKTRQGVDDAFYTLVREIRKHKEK
Assay: SOS-catalyzed nucleotide exchange assay, KRAS WT (Procedure A)
Assay type: biochemical
Conditions: GNE
The entries below come with measured IC50 values attached.

For orientation, consider the following solved cases.
Cc1cc2[nH]ncc2c(-c2nccc3c2sc2nc(OC[C@@]45CCCN4C[C@H](F)C5)nc(N4C[C@@H]5CC[C@H]4CN5)c23)c1C(F)(F)F	3.68 µM
Clc1cc2[nH]ncc2c(-c2nccc3c2sc2nc(OCC45CCOC(CO4)C5)nc(N4C[C@H]5CC[C@@H](C4)N5)c23)c1C1CC1	> 11.1 µM

Query compound follows.
Quick one: IC50 of Cc1cc2[nH]ncc2c(-c2nccc3c2sc2nc(OCC4(C#N)CCCO4)nc(N4C[C@H]5CC[C@@H](C4)N5)c23)c1C(F)(F)F (stereo partly drawn) ?
> 11.1 µM

----------
Target: KRAS G12D (Homo sapiens, UniProt P01116, G12D)
Sequence (P01116 with tags, fused parts or gaps isoform P01116-2 G12D): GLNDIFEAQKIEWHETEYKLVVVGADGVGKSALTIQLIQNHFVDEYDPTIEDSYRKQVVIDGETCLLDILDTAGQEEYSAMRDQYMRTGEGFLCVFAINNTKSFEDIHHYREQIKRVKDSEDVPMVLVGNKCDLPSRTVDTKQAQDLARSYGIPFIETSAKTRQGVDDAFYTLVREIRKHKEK
Assay: SOS-catalyzed nucleotide exchange assay, KRAS G12D (Procedure A)
Type: biochemical
Settings: guanine nucleotide exchange (GNE)
pIC50: −log10 of the molar value.
METRIC NAME: pIC50

C#Cc1c(F)ccc2cc3[nH]ncc3c(-c3nccc4c3sc3nc(OCC56CCCC5N(C)CCC6)nc(N5C[C@H]6CC[C@@H](C5)N6)c34)c12 (stereo partly drawn)	8.70

(A) Cc1cc2[nH]ncc2c(-c2nccc3c2sc2nc(OCC4(C#N)CCCO4)nc(N4C[C@H]5CC[C@@H](C4)N5)c23)c1C(F)(F)F (stereo partly drawn)
(B) Cc1cc2[nH]ncc2c(-c2nccc3c4c(N5C[C@H]6CC[C@@H](C5)N6)nc(OC[C@@]56CCCN5C[C@H](F)C6)nc4n(C)c23)c1C(F)F (single isomer, unassigned)
Looking at recorded values for pIC50, does A or B come in lower? Your answer should be the label of the entry you select.
A
(A: 5.17, B: 7.01)

----------
Target: KRAS G12V (Homo sapiens, UniProt P01116, G12V)
Sequence (P01116 with tags, fused parts or gaps isoform P01116-2 G12V): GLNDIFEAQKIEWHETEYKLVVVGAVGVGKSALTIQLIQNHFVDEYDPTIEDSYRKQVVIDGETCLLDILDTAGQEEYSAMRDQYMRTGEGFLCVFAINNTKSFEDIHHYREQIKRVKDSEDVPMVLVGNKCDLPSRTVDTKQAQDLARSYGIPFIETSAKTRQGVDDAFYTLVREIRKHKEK
Test: SOS-catalyzed nucleotide exchange assay, KRAS G12V (Procedure A)
Type: biochemical
Conditions: GNE
METRIC NAME: IC50 (nM)

C#Cc1c(F)sc2cc3[nH]ncc3c(-c3nccc4c3sc3nc(OC[C@@]56CCCN5C[C@H](F)C6)nc(N5C[C@H]6CC[C@@H](C5)N6)c34)c12	16.2

(A) C#Cc1c(F)ccc2cc3[nH]ncc3c(-c3nccc4c3sc3nc(OC[C@]5(CN6CCC(CCc7cn(C)nn7)CC6)CC5(F)F)nc(N5C[C@H]6CC[C@@H](C5)N6)c34)c12
(B) C#Cc1c(F)ccc2cc3[nH]ncc3c(-c3nccc4c3sc3nc(OCC56CCCN5CC(=C(F)F)C6)nc(N5C[C@H]6CC[C@@H](C5)N6)c34)c12 (stereo partly drawn)
Pick one: A or B . Which one has the lower reported IC50? # answer = label of selected item
B
(B: 94.3 nM, A: 475 nM)

----------
Target: KRAS G12V (Homo sapiens, UniProt P01116, G12V)
Assay: SOS-catalyzed nucleotide exchange assay, KRAS G12V (Procedure A)
Assay type: biochemical
Details: GNE
Experimental: Procedure for SOS-Catalyzed Nucleotide Exchange Assay for KRAS-WT, G12C/D/V, G13D, HRAS, and NRAS (Procedure A) Recombinant KRAS-G12C protein used in this assay has an additional triple mutation (C51S/C80L/C118S). […] The time-resolved fluorescence resonance energy transfer (TR-FRET) signal is measured on an Envision (PerkinElmer) plate reader: Excitation filter=340 nm; emission1=495 nm; emission2=520 nm; dichroic mirror=D400/D505; delay time=100 ms. […]
pIC50: −log10 of the molar value.
METRIC NAME: pIC50

(A) C#Cc1c(F)ccc2cc3[nH]ncc3c(-c3nccc4c3sc3nc(OC[C@@]56CCCN5C/C(=C\F)C6)nc(N5C[C@@H]6C[C@H](O)[C@H](C5)N6)c34)c12
(B) C#Cc1c(F)ccc2cc3[nH]ncc3c(-c3nccc4c3sc3nc(OCC5(CN6CC[C@@H](F)C6)CC5)nc(N5C[C@H]6CC[C@@H](C5)N6)c34)c12
Lower pIC50: A or B ? Please identify the chosen entry by its label.
B
(B: 5.71, A: 7.42)

----------
IC50, NRAS (Homo sapiens): measured values

Cc1cc(N)nc(-c2nccc3c4c(N5C[C@H]6CC[C@@H](C5)N6)nc(OC[C@@]56CCCN5C[C@H](F)C6)nc4n(C)c23)c1C(F)(F)F	> 11.1 µM

Given `Nc1nc2c(-c3nccc4c3sc3nc(OC[C@@]56CCCN5C[C@H](F)C6)nc(N5C[C@H]6CC[C@@H](C5)N6)c34)c(F)cc(F)c2o1` , state its recorded IC50.
> 11.1 µM

Same read-out for Cc1cc2[nH]ncc2c(-c2nccc3c2sc2nc(OCC4(C)CNC(=O)C4)nc(N4C[C@H]5CC[C@@H](C4)N5)c23)c1C(F)(F)F (stereo partly shown) ?
> 11.1 µM

Another: `Cc1cc2[nH]ncc2c(-c2nccc3c2oc2nc(OC[C@@]45CCCN4C[C@H](F)C5)nc(N4C[C@H]5CC[C@@H](C4)N5)c23)c1C(F)(F)F`
> 11.1 µM

----------
Biological target: KRAS WT (Homo sapiens)
Experiment: SOS-catalyzed nucleotide exchange assay, KRAS WT (Procedure A)
Type: biochemical
Details: GNE
METRIC NAME: IC50 (µM)

Cc1cc2[nH]ncc2c(-c2nccc3c2sc2nc(OC[C@@]45CCCN4C[C@H](F)C5)nc(N4[C@@H]5CC[C@H]4CNC5)c23)c1C(F)(F)F	8.09
C#Cc1c(F)ccc2cc3[nH]ncc3c(-c3nccc4c3sc3nc(OC[C@@]56CCCN5C[C@@H](F)C6)nc(N5CC6CCC(C5)N6)c34)c12	0.215

(P) C#Cc1cc(F)cc2cc3[nH]ncc3c(-c3nccc4c3sc3nc(OC[C@@]56CCCN5C[C@H](F)C6)nc(N5C[C@H]6CC[C@@H](C5)N6)c34)c12
(Q) C#Cc1c(F)sc2cc3[nH]ncc3c(-c3nccc4c3sc3nc(OC[C@@]56CCCN5C[C@H](F)C6)nc(N5C[C@H]6CC[C@@H](C5)N6)c34)c12
(R) Cc1cc2[nH]nc(C#N)c2c(-c2nccc3c2sc2nc(OC[C@@]45CCCN4C[C@H](F)C5)nc(N4C[C@H]5CC[C@@H](C4)N5)c23)c1C(F)(F)F
(S) F[C@H]1CN2CCC[C@@]2(COc2nc(N3C[C@H]4CC[C@@H](C3)N4)c3c(n2)sc2c(-c4c(C5CC5)c(Cl)cc5[nH]ncc45)nccc23)C1
Would you mind ranking these compounds by ascending IC50? Order the labels as requested and give them as your answer.
Q, P, S, R
(Q: 0.0125 µM, P: 0.542 µM, S: 1.16 µM, R: 9.94 µM)

----------
Molecular target: KRAS G12V (Homo sapiens, UniProt P01116, G12V)
Test: SOS-catalyzed nucleotide exchange assay, KRAS G12V (Procedure A)
Assay type: biochemical
Details: GNE
METRIC NAME: IC50 (nM)

F/C=C1\CN2CCC[C@@]2(COc2nc(N3C[C@H]4CC[C@@H](C3)N4)c3c(n2)C2(CC2)c2c-3ccnc2-c2c(C3CC3)c(Cl)cc3[nH]ncc23)C1 (single isomer, unassigned) [Ex-116]	804

(P) Cc1cc2[nH]ncc2c(-c2nccc3c4c(N5C[C@H]6CC[C@@H](C5)N6)nc(OC[C@@]56CCCN5C[C@H](F)C6)nc4n(C)c23)c1C(F)F (single isomer, unassigned) [Ex-3]
(Q) C#Cc1c(F)ccc2cc3[nH]ncc3c(-c3nccc4c3sc3nc(OC[C@]5(CN(C)C)CC5(F)F)nc(N5C[C@H]6CC[C@@H](C5)N6)c34)c12 [Ex-96]
Which value of IC50 is smaller, the one for P or the one for Q ? Answer with the label corresponding to your selection.
Q

----------
Biological target: KRAS G13D (Homo sapiens, UniProt P01116, G13D)
Sequence (P01116 with tags, fused parts or gaps isoform P01116-2 G13D): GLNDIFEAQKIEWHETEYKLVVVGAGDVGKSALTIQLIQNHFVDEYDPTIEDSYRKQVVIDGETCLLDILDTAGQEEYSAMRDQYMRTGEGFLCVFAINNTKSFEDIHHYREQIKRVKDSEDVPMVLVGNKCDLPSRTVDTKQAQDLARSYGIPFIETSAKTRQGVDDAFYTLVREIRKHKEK
Assay: SOS-catalyzed nucleotide exchange assay, KRAS G13D (Procedure A)
Details: GNE
METRIC NAME: IC50 (µM)

FC(F)c1c(Cl)cc2[nH]ncc2c1-c1nccc2c1sc1nc(OC[C@@]34CCCN3C[C@H](F)C4)nc(N3C[C@H]4CC[C@@H](C3)N4)c12	1.83
Cc1cc2[nH]ncc2c(-c2nccc3c4c(N5C[C@H]6CC[C@@H](C5)N6)nc(OC[C@]5(CO)CC5(F)F)nc4n(C)c23)c1C(F)(F)F	4.88

(I) Cc1cc2[nH]ncc2c(-c2nccc3c2sc2nc(OCC4(C#N)CCOCC4)nc(N4C[C@H]5CC[C@@H](C4)N5)c23)c1C(F)(F)F
(II) Cn1c2nc(OC[C@]3(CO)CC3(F)F)nc(N3C[C@H]4CC[C@@H](C3)N4)c2c2ccnc(-c3ccc(F)c4sc(N)c(C#N)c34)c21
Please let me know which one, I or II , has a lower measured IC50 value. State your choice using its label.
II
(II: 1.54 µM, I: 3.55 µM)
